assay: Biodistribution of 99mTc(N)(X)(DTC)+ heterocomplexes in rats; format: in vivo, male Spraque-Dawley rats (SD rats); conditions: 4 hr after injection
observation type: Blood % dose/g (% dose/g)
Report as a plain number; the unit % dose/g is understood.

Req: Using the record for CSC1=[S+][99Tc-2]2(#[N])([NH]N1C)[P+](c1ccccc1)(c1ccccc1)CCOCC[P+]2(c1ccccc1)c1ccccc1 [^99mTc(N)(POP)(DTC)^+] , report its Blood % dose/g.
Resp: 0.125

Req: Okay, and COCCN1CC[P+](c2ccccc2)(c2ccccc2)[99Tc-2]2(#[N])([NH]N(C)C(SC)=[S+]2)[P+](c2ccccc2)(c2ccccc2)CC1 [^99mTc(N)(PNP2)(DTC)^+] ?
Resp: 0.087

Req: Okay, and CCCN1CC[P+](c2ccccc2)(c2ccccc2)[99Tc-2]2(#[N])([NH]N(C)C(SC)=[S+]2)[P+](c2ccccc2)(c2ccccc2)CC1 [^99mTc(N)(PNP1)(DTC)^+] ?
Resp: 0.137

Req: Okay, and COCCC[P]1(CCCOC)CCN(CCOC)CC[P](CCCOC)(CCCOC)[99Tc+]12(#[N])[NH]N(C)C(SC)=[S]2 [^99mTc(N)(PNP3)(DTC)^+] ?
Resp: 0.030

###

assay: Biodistribution of 99mTc(N)(X)(DTC)+ heterocomplexes in rats; type: in vivo, male Spraque-Dawley rats (SD rats); details: 2 min after injection
observation type: Kidney % dose/g (% dose/g)
Report as a plain number; the unit % dose/g is understood.

Req: Using the record for COCCN1CC[P+](c2ccccc2)(c2ccccc2)[99Tc-2]2(#[N])([NH]N(C)C(SC)=[S+]2)[P+](c2ccccc2)(c2ccccc2)CC1 [^99mTc(N)(PNP2)(DTC)^+] , report its Kidney % dose/g.
Resp: 4.941

Req: Okay, and CSC1=[S+][99Tc-2]2(#[N])([NH]N1C)[P+](c1ccccc1)(c1ccccc1)CCOCC[P+]2(c1ccccc1)c1ccccc1 [^99mTc(N)(POP)(DTC)^+] ?
Resp: 5.952

Req: Okay, and COCCC[P]1(CCCOC)CCN(CCOC)CC[P](CCCOC)(CCCOC)[99Tc+]12(#[N])[NH]N(C)C(SC)=[S]2 [^99mTc(N)(PNP3)(DTC)^+] ?
Resp: 9.676

Req: Okay, and CCCN1CC[P+](c2ccccc2)(c2ccccc2)[99Tc-2]2(#[N])([NH]N(C)C(SC)=[S+]2)[P+](c2ccccc2)(c2ccccc2)CC1 [^99mTc(N)(PNP1)(DTC)^+] ?
Resp: 4.145

###

test: Biodistribution of 99mTc(N)(X)(DTC)+ heterocomplexes in rats; assay type: in vivo, male Spraque-Dawley rats (SD rats); settings: 30 min after injection
observation type: Blood % dose/g (% dose/g)
Report as a plain number; the unit % dose/g is understood.

Req: Using the record for CCCN1CC[P+](c2ccccc2)(c2ccccc2)[99Tc-2]2(#[N])([NH]N(C)C(SC)=[S+]2)[P+](c2ccccc2)(c2ccccc2)CC1 [^99mTc(N)(PNP1)(DTC)^+] , report its Blood % dose/g.
Resp: 0.285

Req: Okay, and CSC1=[S+][99Tc-2]2(#[N])([NH]N1C)[P+](c1ccccc1)(c1ccccc1)CCOCC[P+]2(c1ccccc1)c1ccccc1 [^99mTc(N)(POP)(DTC)^+] ?
Resp: 0.547

Req: Okay, and COCCN1CC[P+](c2ccccc2)(c2ccccc2)[99Tc-2]2(#[N])([NH]N(C)C(SC)=[S+]2)[P+](c2ccccc2)(c2ccccc2)CC1 [^99mTc(N)(PNP2)(DTC)^+] ?
Resp: 0.333

Req: Okay, and COCCC[P]1(CCCOC)CCN(CCOC)CC[P](CCCOC)(CCCOC)[99Tc+]12(#[N])[NH]N(C)C(SC)=[S]2 [^99mTc(N)(PNP3)(DTC)^+] ?
Resp: 0.098

Recorded values, source patent US20020048549A1.
